Assay: Acute toxicity (LD50) by oral route and by injection
Conditions: mouse, in vivo
Reported endpoint: LD50

State the recorded LD50 for this entry: O=C(O)c1cc2ccccc2s1 [Example 1]
~1300 mg/kg

---

Test: pH of a 5% aqueous solution of the salt
Assay type: physicochemical
Where a name gives a salt, the structure may show the parent alone.
Reported endpoint: pH of a 5% aqueous solution
Reply with just the number.

State the recorded pH of a 5% aqueous solution for this entry: O=C(O)c1cc2ccccc2s1 [Example 1]
5.75

Same question for O=C(O)c1cc2ccccc2s1 [Example 3, Ammonium salt of TNCA] please.
6.05

Same question for O=C(O)c1cc2ccccc2s1 [Example 4, Arginine salt of TNCA] please.
5.8

Same question for O=C(O)c1cc2ccccc2s1 [Example 5, Piperidine salt of TNCA] please.
6.4

Same question for O=C(O)c1cc2ccccc2s1 [Example 2] please.
6.77
